Measured pKd, listed per entry for reference.
# ASSAYED SYSTEM: T1, Her2 extracellular domain (Her2 ECD) (human, UniProt P04626 23-652)
# T1 construct: For the crystal structure it was expressed in CHO cells and the complex was enzymatically deglycosylated; also called biotinylated Her2 ECD
# EXPERIMENT NOTES: SPR (BIAcore T100), IgG on anti-human IgG (Fc) capture chip, Her2 ECD, 1:1 Langmuir fit
For clarity, pKd is expressed as the negative log10 of concentration in mol/L.

Identify measured pKd associated with 7C2.v1.2 (antibody, V domains shown) VH: EVQLVQSGAEVKKPGASVKVSCKASGYSFTGYWMNWVRQAPGQGLEWIGMIHPSDSEIRANQKFRDRVTITVDTSTSTAYLELSSLRSEDTAVYYCARGTYDGGFEYWGQGTLVTVSS VL: DIVMTQSPDSLAVSLGERATINCRASQSVSGSRFTYMHWYQQKPGQPPKLLIYYASILESGVPDRFSGSGSGTDFTLTISSLQAEDVAVYYCQHSWEIPPWTFGQGTKVEIK
7.89

Identify measured pKd associated with 7C2.v3.1 (antibody, V domains shown, Expressed as IgG) VH: EVQLVQSGAEVKKPGASVKVSCKASGYSFTGYWMNWVRQAPGQGLEWIGMIHPSDSEIRANQKFRDRVTITRDTSTSTAYLELSSLRSEDTAVYYCARGTYDGGFEYWGQGTLVTVSS VL: DIVLTQSPDSLAVSLGERATINCRASQSVSGSRFTYMHWYQQKPGQPPKLLIKYASILESGVPDRFSGSGSGTDFTLTISSLQAEDVAVYYCQHSWEIPPWTFGQGTKVEIK
7.82

Identify measured pKd associated with hu7C2.v2.2 (antibody, V domains shown, Expressed as IgG; It is the parent of hu7C2.v2.2.LA, which adds S53L and S55A in HVR-H2) VH: EVQLVQSGAEVKKPGASVKVSCKASGYSFTGYWMNWVRQAPGQGLEWIGMIHPSDSEIRANQKFRDRVTITVDTSTSTAYLELSSLRSEDTAVYYCARGTYDGGFEYWGQGTLVTVSS VL: DIVMTQSPDSLAVSLGERATINCRASQSVSGSRFTYMHWYQQKPGQPPKLLIKYASILESGVPDRFSGSGSGTDFTLTISSLQAEDVAVYYCQHSWEIPPWTFGQGTKVEIK
7.96
